Origin of measurements: ChEMBL document CHEMBL4831527

# experimental.protocol: in vitro
# cond: human, liver microsomes
With a cut-off of 100 mL/min/kg, any CLint scaled at 1 h, 1 µM strictly below it is called criterion met; any CLint scaled at 1 h, 1 µM meeting it or above is called criterion not met.

compound | assigned.class
Cc1cc(/C=C/C#N)cc(C)c1Oc1nc(Nc2ccc(C#N)cc2)nn2cccc12 | criterion met
C[C@]12CC[C@H]3[C@@H](CCC4=CC(=O)CC[C@@]43C)[C@@H]1CC[C@@H]2O | criterion not met
O=C(O)Cc1ccccc1Nc1c(Cl)cccc1Cl | criterion not met
Cc1cc(/C=C/C#N)cc(C)c1Oc1nc(Nc2ccc(C#N)nc2)nc2c1CCCC2 | criterion met
Cc1cc(C#N)cc(C)c1Oc1nc(Nc2ccc(C#N)cc2)nc2c1ccn2CC(=O)N1CCOCC1 | criterion not met
Cc1cc(/C=C/C#N)cc(C)c1Oc1nc(Nc2ccc(C#N)cc2)nc2c1CCCC2 | criterion met

---

# Test system: Human immunodeficiency virus 1
# experimental.protocol: Antiviral activity against HIV1 harboring reverse transcriptase Y181C mutant infected in human MT4 cells assessed as protection against virus-induced cytopathic effect incubated for 5 days by MTT assay
# Type: functional, organism-based
# cond: Human immunodeficiency virus 1, MT4, 120 h
reported.metric: EC50 (nM)

compound | assayed.system | unit.abbrev | meas.value
Cc1cc(C)c(Oc2nc(Nc3ccc(C#N)cc3)nc3c2CCCC3)c(C)c1 | Human immunodeficiency virus 1 | nM | 232
Cc1cc(/C=C/C#N)cc(C)c1Oc1nc(Nc2ccc(C#N)nc2)nc2c1CCCC2 | Human immunodeficiency virus 1 | nM | 34.8
Cc1cc(/C=C/C#N)cc(C)c1Oc1nc(Nc2ccc(C#N)cc2)nn2cccc12 | Human immunodeficiency virus 1 | nM | 19.7
Cc1cc(C#N)cc(C)c1Oc1nc(Nc2ccc(C#N)cc2)nc(N)c1Br | Human immunodeficiency virus 1 | nM | 213
Cc1cc(C#N)cc(C)c1Oc1nc(Nc2ccc(C#N)cc2)nc2c1ccn2CO | Human immunodeficiency virus 1 | nM | 31.2
Cc1cc(C=O)cc(C)c1Oc1nc(Nc2ccc(C#N)cc2)nc2c1CCCC2 | Human immunodeficiency virus 1 | nM | 748
Cc1cc(C#N)cc(C)c1Oc1nc(Nc2ccc(CC#N)cc2)nc2c1CCCC2 | Human immunodeficiency virus 1 | nM | 283
Cc1cc(C#N)cc(C)c1Oc1nc(Nc2ccc(C#N)cc2)nc2c1CCCC2 | Human immunodeficiency virus 1 | nM | 52.7
Cc1cc(/C=C/C#N)cc(C)c1Oc1nc(Nc2ccc(CC#N)cc2)nc2c1CCCC2 | Human immunodeficiency virus 1 | nM | 140
Cc1cc(/C=C/C#N)cc(C)c1Oc1nc(Nc2ccc(C#N)cc2)nc2c1CCCC2 | Human immunodeficiency virus 1 | nM | 40.9
Cc1cc(C#N)cc(C)c1Oc1nc(Nc2ccc(C#N)nc2)nn2cccc12 | Human immunodeficiency virus 1 | nM | 171
Cc1cc(C#N)cc(C)c1Oc1nc(Nc2ccc(C#N)cc2)nc2c1ccn2CC(=O)N1CCOCC1 | Human immunodeficiency virus 1 | nM | 148

---

# experimental.protocol: Cytotoxicity against mock-infected human MT4 cells assessed as reduction in cell viability measured after 5 days by MTT assay
# Format: cell-based
# cond: time 5 day
With a cut-off of 20 µM, any CC50 at 120 h strictly below it is called y; any CC50 at 120 h meeting it or above is called n.

compound | assigned.class
Cc1cc(/C=C/C#N)cc(C)c1Oc1nc(Nc2ccc(CC#N)cc2)nc2c1CCCC2 | n
Cc1cc(C)c(Oc2nc(Nc3ccc(C#N)cc3)nc3c2CCCC3)c(C)c1 | y
Cc1cc(C#N)cc(C)c1Oc1nc(Nc2ccc(C#N)cn2)nc2c1ccn2COCC[Si](C)(C)C | n
Cc1cc(/C=C/C#N)cc(C)c1Oc1nc(Nc2ccc(C#N)cc2)nc2c1CCCC2 | y
Cc1cc(C=O)cc(C)c1Oc1nc(Nc2ccc(C#N)nc2)nc2c1CCCC2 | n
Cc1cc(/C=C/C#N)cc(C)c1Oc1nc(Nc2ccc(C#N)cc2)nn2cccc12 | y
Cc1cc(C#N)cc(C)c1Oc1nc(Nc2ccc(C#N)cc2)nc2c1ccn2COCC[Si](C)(C)C | y
Cc1cc(C#N)cc(C)c1Oc1nc(Nc2ccc(OC(F)(F)F)cc2)nc2c1CCCC2 | n
